Target: 5-HT2A receptor (Homo sapiens)
Sequence (P28223 whole entry): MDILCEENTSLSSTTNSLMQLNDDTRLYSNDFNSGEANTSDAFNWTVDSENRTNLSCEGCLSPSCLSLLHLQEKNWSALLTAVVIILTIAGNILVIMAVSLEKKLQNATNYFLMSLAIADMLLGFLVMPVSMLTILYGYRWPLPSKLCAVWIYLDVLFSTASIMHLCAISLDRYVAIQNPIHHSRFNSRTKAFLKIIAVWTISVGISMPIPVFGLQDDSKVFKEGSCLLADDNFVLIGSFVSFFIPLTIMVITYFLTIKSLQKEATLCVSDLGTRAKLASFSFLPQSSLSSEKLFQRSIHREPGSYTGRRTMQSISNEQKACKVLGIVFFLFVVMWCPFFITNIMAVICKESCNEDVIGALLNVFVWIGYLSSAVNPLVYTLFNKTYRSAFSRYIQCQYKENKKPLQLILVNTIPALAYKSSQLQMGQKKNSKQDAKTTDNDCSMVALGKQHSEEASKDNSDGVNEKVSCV
Assay: h5-HT2A affinity, agonist radioligand [125I]DOI
Type: binding
Items are presented alongside their recorded pKi.
Answer as the number alone; pKi is minus log10 of concentration in mol/L.

These solved cases illustrate the format of a correct answer.
Exercise: I'd like to know its pKi. The molecule in question is COc1ccc(CNCCc2cc(OC)c(I)cc2OC)cc1
Key: 9.15

Exercise: Would you kindly repeat that for COc1cc(CCNCc2ccc(Br)cc2)c(OC)cc1I ?
Key: 8.49

Exercise: Entry to check: COc1cccc(CNCCc2cc(OC)c(I)cc2OC)c1
Key: 9.57

Exercise: Consider next the molecule COc1ccc2[nH]cc(CCNCc3cccc(Cl)c3)c2c1 in the same way.
Key: 8.98

In the following, a different molecule is considered.
Exercise: Requested field: pKi. Item: COc1ccc2[nH]cc(CCNCc3ccc(Br)cc3)c2c1
Key: 7.95
